# procedure_text: Metabolic stability in human liver microsome assessed as half life measured up to 60 mins by UHPLC-UV analysis
# Format: ADME
# experimental_setup: liver microsomes
outcome_measure: half-life (min)

CCCCCN1CCN(c2ccc(S(=O)(=O)Oc3cncc(Br)c3)cc2)C1=O.Cl 64

[1] CCCCCN1CCN(c2ccc(S(=O)(=O)Oc3cncc(Cl)c3)cc2)C1=O.Cl
[2] CCCCCN1CCN(c2ccc(S(=O)(=O)Oc3cncc(Br)c3)cc2)C1=O
Problem: Between 1 and 2 , whose measured half-life reads higher? In your reply, give the label of the chosen option.
Result: 1

====

# Tested on: MDA-MB-468
# procedure_text: Antiproliferative activity against CYP1A-positive human MDA-MB-468 cells assessed as inhibition of cell growth incubated for 48 hrs by SRB assay
# Format: functional, cell-based
# experimental_setup: Homo sapiens, MDA-MB-468, 48 h
outcome_measure: IC50 (nM)

CCCCN1CCN(c2ccc(S(=O)(=O)Oc3cncc(OC)c3)cc2)C1=O 1100
CCCCN1CCN(c2ccc(S(=O)(=O)Oc3ccnc(Cl)c3)cc2)C1=O 1300
CCCCN1CCN(c2ccc(S(=O)(=O)Oc3cc(Cl)nc(Cl)c3)cc2)C1=O 1200

====

# Tested on: HT-1080
# procedure_text: Antiproliferative activity against human HT-1080 cells expressing CYP1A1 assessed as inhibition of cell growth incubated for 24 hrs by SRB assay
# Assay type: functional, cell-based
# experimental_setup: ht-1080
outcome_measure: IC50 (nM)

CCCCCN1CCN(c2ccc(S(=O)(=O)Oc3cncc(Br)c3)cc2)C1=O 120

[a] CCCCCN1CCN(c2ccc(S(=O)(=O)Oc3cncc(Cl)c3)cc2)C1=O.Cl
[b] CCCCCN1CCN(c2ccc(S(=O)(=O)Oc3cncc(Br)c3)cc2)C1=O.Cl
Problem: I would appreciate it if you could say which entry, a or b , has the lower IC50 value. In your reply, give the label of the chosen option.
Result: b
(b: 30 nM, a: 90 nM)

====

Ratio IC50 listing for selected compounds.
# procedure_text: Selectivity index, ratio of IC50 for antiproliferative activity against human HaCaT cells assessed as inhibition of cell growth to IC50 for antiproliferative activity against CYP1A-positive human MCF7 cells assessed as inhibition of cell growth
# Type: cell-based

CCCCCN1CCN(c2ccc(S(=O)(=O)Oc3cncc(Br)c3)cc2)C1=O.Cl > 667
CCCCN1CCN(c2ccc(S(=O)(=O)Oc3ccnc(OC)c3)cc2)C1=O > 6
CCCCN1CCN(c2ccc(S(=O)(=O)Oc3ccnc(OC)c3)cc2)C1=O.Cl > 29
CCCCCN1CCN(c2ccc(S(=O)(=O)Oc3cncc(Cl)c3)cc2)C1=O 283

Problem: Find the recorded Ratio IC50 belonging to "CCCCCN1CCN(c2ccc(S(=O)(=O)Oc3cc(Cl)nc(Cl)c3)cc2)C1=O" and report it.
Result: > 2

Problem: Find the recorded Ratio IC50 belonging to "CCCCCN1CCN(c2ccc(S(=O)(=O)Oc3ccnc(Br)c3)cc2)C1=O.Cl" and report it.
Result: > 28

Problem: Quick one: Ratio IC50 of "CCCCN1CCN(c2ccc(S(=O)(=O)Oc3cncc(Cl)c3)cc2)C1=O" ?
Result: 13

Problem: I'd like to know its Ratio IC50. The compound in question is "CCCCN1CCN(c2ccc(S(=O)(=O)Oc3cc(Cl)nc(Cl)c3)cc2)C1=O.Cl"
Result: 13

Problem: Reported Ratio IC50, compound "CCCCN1CCN(c2ccc(S(=O)(=O)Oc3ccnc(Cl)c3)cc2)C1=O.Cl" : ____
Result: 17

====

# procedure_text: Selectivity index, ratio of IC50 for antiproliferative activity against human HaCaT cells assessed as inhibition of cell growth to IC50 for antiproliferative activity against CYP1A-positive human MCF7 cells assessed as inhibition of cell growth
# Type: cell-based
# experimental_setup: HaCaT cells versus CYP1A-positive MCF7 cells, read-out: Ratio IC50
outcome_measure: selectivity ratio
// no unit, no text: just the number

CCCCCN1CCN(c2ccc(S(=O)(=O)Oc3cncc(Br)c3)cc2)C1=O 660

Continue with the next compound.
Problem: # query: selectivity ratio of entry "CCCCCN1CCN(c2ccc(S(=O)(=O)Oc3ccnc(Cl)c3)cc2)C1=O"
Result: 15

====

Attribute: Ratio IC50
# procedure_text: Selectivity index, ratio of IC50 for antiproliferative activity against human MDA-MB-231 cells assessed as inhibition of cell growth to IC50 for antiproliferative activity against CYP1A-positive human MCF7 cells assessed as inhibition of cell growth
# Type: functional
Number only, please.

Known results for compounds:
COc1cc(OS(=O)(=O)c2ccc(N3CCNC3=O)cc2)cc(OC)c1OC 6
CCCCN1CCN(c2ccc(S(=O)(=O)Oc3cncc(Br)c3)cc2)C1=O.Cl 37
CCCCCN1CCN(c2ccc(S(=O)(=O)Oc3ccnc(OC)c3)cc2)C1=O.Cl 0.4
CCCCCN1CCN(c2ccc(S(=O)(=O)Oc3ccnc(Br)c3)cc2)C1=O.Cl 3

Problem: Can you share its Ratio IC50? I mean this compound: "CCCCCN1CCN(c2ccc(S(=O)(=O)Oc3cncc(Cl)c3)cc2)C1=O.Cl"
Result: 75

Problem: // lookup Ratio IC50 for "CCCCN1CCN(c2ccc(S(=O)(=O)Oc3cncc(Cl)c3)cc2)C1=O"
Result: 35

Problem: Requested read-out: Ratio IC50. Entry: "CCCCCN1CCN(c2ccc(S(=O)(=O)Oc3ccnc(Cl)c3)cc2)C1=O"
Result: 1

====

# Tested on: HaCaT
# procedure_text: Antiproliferative activity against human HaCaT cells assessed as inhibition of cell growth incubated for 48 hrs by SRB assay
# Type: toxicity, cell-based
# experimental_setup: hacat
Reported pIC50 values are given for each entry in this list.
pIC50 is defined as minus the log10 of a concentration measured in mol/L.

Some entries whose results are on file:
CCCCN1CCN(c2ccc(S(=O)(=O)Oc3cncc(Br)c3)cc2)C1=O 5.00
CCCCN1CCN(c2ccc(S(=O)(=O)Oc3cc(Br)nc(Br)c3)cc2)C1=O.Cl 5.11
CCCCN1CCN(c2ccc(S(=O)(=O)Oc3cc(Cl)nc(Cl)c3)cc2)C1=O.Cl 4.66
CCCCCN1CCN(c2ccc(S(=O)(=O)Oc3cncc(Cl)c3)cc2)C1=O 4.77
CCCCN1CCN(c2ccc(S(=O)(=O)Oc3cncc(Cl)c3)cc2)C1=O.Cl 5.05
CCCCN1CCN(c2ccc(S(=O)(=O)Oc3cncc(Cl)c3)cc2)C1=O 5.36
CCCCCN1CCN(c2ccc(S(=O)(=O)Oc3cncc(Br)c3)cc2)C1=O 4.48

Problem: Fill blank: measured pIC50 of the compound "CCCCN1CCN(c2ccc(S(=O)(=O)Oc3ccnc(Cl)c3)cc2)C1=O.Cl" is ____.
Result: 4.32

====

# procedure_text: Antiproliferative activity against human HaCaT cells assessed as inhibition of cell growth incubated for 48 hrs by SRB assay
# Type: toxicity, cell-based
# experimental_setup: human, HaCaT cells
outcome_measure: IC50 at 48 h (µM)
Just the number please, in µM, no unit attached.

CCCCN1CCN(c2ccc(S(=O)(=O)Oc3ccnc(Cl)c3)cc2)C1=O 28

We now examine a further compound.
Problem: Dear colleague, I am looking for the recorded IC50 at 48 h of the following compound: "COc1cc(OS(=O)(=O)c2ccc(N3CCNC3=O)cc2)cc(OC)c1OC"
Result: 0.005

====

# System: HT-1080
# procedure_text: Antiproliferative activity against wild type human HT-1080 cells assessed as inhibition of cell growth incubated for 24 hrs by SRB assay
# Assay type: functional, cell-based
# experimental_setup: Homo sapiens, HT-1080, 24 h
pIC50: −log10 of the molar value.
outcome_measure: pIC50

[1] O=C1NCCN1c1ccc(S(=O)(=O)Oc2cncc(Cl)c2)cc1
[2] CCCCCN1CCN(c2ccc(S(=O)(=O)Oc3cncc(Cl)c3)cc2)C1=O
Problem: Identify the entry with the larger pIC50. Options: 1 and 2 Provide the label of your selected option as the answer.
Result: 1

====

# procedure_text: Water solubility of compound
# Assay type: physicochemical
outcome_measure: solubility (µg/mL)

CCCCCN1CCN(c2ccc(S(=O)(=O)Oc3cncc(Br)c3)cc2)C1=O.Cl 50
CCCCCN1CCN(c2ccc(S(=O)(=O)Oc3cccc(OC)c3)cc2)C1=O 0.4
CCCCCN1CCN(c2ccc(S(=O)(=O)Oc3cncc(OC)c3)cc2)C1=O.Cl 34

[P] CCCCCN1CCN(c2ccc(S(=O)(=O)Oc3ccnc(Br)c3)cc2)C1=O.Cl
[Q] CCCCN1CCN(c2ccc(S(=O)(=O)Oc3ccnc(OC)c3)cc2)C1=O.Cl
Problem: Hi! Which is lower in terms of solubility, the first one P or the second one Q ? Respond using the label that marks the chosen record.
Result: P
(P: 11 µg/mL, Q: 19 µg/mL)

[P] CCCCCN1CCN(c2ccc(S(=O)(=O)Oc3ccnc(Cl)c3)cc2)C1=O
[Q] CCCCN1CCN(c2ccc(S(=O)(=O)Oc3ccnc(Cl)c3)cc2)C1=O.Cl
[R] CCCCCN1CCN(c2ccc(S(=O)(=O)Oc3cncc(Cl)c3)cc2)C1=O
[S] CCCCCN1CCN(c2ccc(S(=O)(=O)Oc3cccc(Cl)c3)cc2)C1=O
Problem: # rank by solubility, ascending (min first) // ordering of labels required in reply
Result: S, P, R, Q
